Tested on: Listeria monocytogenes
Experiment: MIC/MBC by broth dilution, pure ILs
Type: cell-based
Settings: 24 h, NI = no inhibition at IL maximum concentration used (1000 µM), read-out: MIC
outcome measure: MIC (µM)
# unit: µM | format: bare number

Recorded MIC, per entry:
{"columns": ["compound", "assayed target", "measured value"],
 "data": [
  ["CCCCCCCCCCCCCCCC[n+]1ccn(C)c1.COC(=O)c1cc(C(=O)OC)cc(S(=O)(=O)[O-])c1 [C16mimDMSIP]", "Listeria monocytogenes", 50],
  ["CCCCCCCCCCCCCC[n+]1ccn(C)c1.F[B-](F)(F)F [C14mimBF4]", "Listeria monocytogenes", 12.5],
  ["CCCCCCCCCC[n+]1ccn(C)c1.COC(=O)c1cc(C(=O)OC)cc(S(=O)(=O)[O-])c1 [C10mimDMSIP]", "Listeria monocytogenes", 250],
  ["CCCCCCCCCCCCCCCC[n+]1ccn(C)c1.F[B-](F)(F)F [C16mimBF4]", "Listeria monocytogenes", 50],
  ["CCCCCCCCCCCCCCCCCC[n+]1ccn(C)c1.F[B-](F)(F)F [C18mimBF4]", "Listeria monocytogenes", 500],
  ["CCCCCCCCCCCCCC[n+]1ccn(C)c1.COC(=O)c1cc(C(=O)OC)cc(S(=O)(=O)[O-])c1 [C14mimDMSIP]", "Listeria monocytogenes", 50]
]}

Provide the reported MIC (system: Listeria monocytogenes) for CCCCCCCCCCCCn1cc[n+](C)c1.F[B-](F)(F)F [C12mimBF4]
25
